Molecular target: UniProtKB P28223
Test: Serotonin 5-HT2A in vitro radioligand binding competition assay ([3H]-DOI)
Parameters: purchased Epics Therapeutics S. A. (Belgium) FAST-0505B
Conditions: [3H]-DOI competition, membrane extracts
pIC50: −log10 of the molar value.
Metric: pIC50

Some entries whose results are on file:
Fc1ccc2c(ccn2C2CCN(C3COC3)C2)c1F (centres unmarked) :: < 5.00
Cc1cn(C2CCN(C)C2)c2ccc(F)cc12 (centres unmarked) :: 5.00 to 6.00

Lookup: pIC50 / UniProtKB P28223 / Cc1cn(C2CCN(C)CC2)c2ccc(F)cc12
6.00 to 7.00

Lookup: pIC50 / UniProtKB P28223 / CN1CCC(n2ccc3c(F)c(F)ccc32)C1 (centres unmarked)
6.00 to 7.00

Lookup: pIC50 / UniProtKB P28223 / CN1CC(n2ccc3cccc(F)c32)C1
6.00 to 7.00

Lookup: pIC50 / UniProtKB P28223 / Fc1ccc2c(ccn2C2CCNC2)c1F (centres unmarked)
6.00 to 7.00

Lookup: pIC50 / UniProtKB P28223 / CN1CC(n2ccc3cc(F)ccc32)C1
6.00 to 7.00

Lookup: pIC50 / UniProtKB P28223 / CC(C)N1CCC(n2ccc3c(F)c(F)ccc32)C1 (centres unmarked)
5.00 to 6.00

Lookup: pIC50 / UniProtKB P28223 / CCN1CCC(n2ccc3c(F)c(F)ccc32)C1 (centres unmarked)
5.00 to 6.00

Lookup: pIC50 / UniProtKB P28223 / CN1CC(n2ccc3cc(C#N)ccc32)C1
< 5.00

Lookup: pIC50 / UniProtKB P28223 / CN1CC(n2ccc3cc(Cl)ccc32)C1
< 5.00

###

Biological target: 5-HT2A (Homo sapiens, UniProt P28223)
Sequence (P28223 whole entry): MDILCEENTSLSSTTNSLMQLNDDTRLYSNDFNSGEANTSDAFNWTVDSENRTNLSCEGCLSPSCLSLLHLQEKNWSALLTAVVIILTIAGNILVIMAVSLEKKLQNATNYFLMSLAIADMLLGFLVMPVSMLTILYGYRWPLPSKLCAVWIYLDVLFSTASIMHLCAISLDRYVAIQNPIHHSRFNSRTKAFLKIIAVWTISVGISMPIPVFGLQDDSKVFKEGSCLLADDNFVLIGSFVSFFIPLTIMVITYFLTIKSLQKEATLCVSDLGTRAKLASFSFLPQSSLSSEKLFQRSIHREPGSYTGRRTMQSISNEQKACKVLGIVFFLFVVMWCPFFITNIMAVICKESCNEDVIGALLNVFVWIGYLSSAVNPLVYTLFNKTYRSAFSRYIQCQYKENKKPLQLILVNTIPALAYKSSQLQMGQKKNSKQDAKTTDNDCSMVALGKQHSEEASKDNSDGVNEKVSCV
Assay: Serotonin 5-HT2A in vitro radioligand binding competition assay ([3H]-DOI)
Set-up: purchased Epics Therapeutics S. A. (Belgium) FAST-0505B
Details: [3H]-DOI competition, membrane extracts
pIC50: −log10 of the molar value.
Metric: pIC50

Some entries whose results are on file:
Fc1ccc2c(ccn2C2CNC2)c1 :: 6.00 to 7.00
Cc1cn(C2CCNCC2)c2ccc(F)cc12 :: 6.00 to 7.00
CC(C)c1cn(C2CCN(C)C2)c2ccc(F)cc12 (stereo not shown) :: 5.00 to 6.00

Value lookup for pIC50; key = CN1CC(n2ccc3ccc(F)cc32)C1
6.00 to 7.00

Value lookup for pIC50; key = CN1CCC(n2cc(-c3ccccc3)c3cc(F)ccc32)C1 (stereo not shown)
7.00 to 8.00

Value lookup for pIC50; key = CN1CC(n2ccc3c(F)cccc32)C1
6.00 to 7.00

###

Molecular target: 5-HT2A (Homo sapiens)
Assay: Serotonin 5-HT2A in vitro cellular IPOne antagonism assay
Format: cell-based
Parameters: host or cells: CHO-K1
Settings: CHO-K1 cells, IPOne HTRF, reference agonist a-Me-5HT
Procedure: Serotonin 5-HT2A and 5-HT2C In Vitro Cellular IPOne Antagonism Assay. The 5-HT2A and 5-HT2C IPOne HTRF assay was performed at Epics Therapeutics S.A. (Belgium, FAST-0505I) in antagonism mode using conventional methods. […] For antagonist testing, a reference agonist a-Me-5HT was added and fluorescence signal monitored for several minutes, followed by addition of 20 μlof assay buffer plus 20 μl of test compound or reference antagonist ketanserin, in each well. […]
pIC50: −log10 of the molar value.
The entries below come with measured pIC50 values attached.

Some entries whose results are on file:
Clc1ccc2c(ccn2C2CNC2)c1 :: 6.00 to 7.00
CN1CC(n2ccc3cccc(F)c32)C1 :: 5.00 to 6.00
Cc1cn(C2CCNCC2)c2ccc(F)cc12 :: 6.00 to 7.00
CN1CC(n2ccc3cc(Cl)ccc32)C1 :: < 5.00
Fc1ccc2c(ccn2C2CCNC2)c1F (stereo not drawn) :: 6.00 to 7.00

Lookup: pIC50 / 5-HT2A (Homo sapiens) / CN1CCC(n2cc(-c3ccccc3)c3cc(F)ccc32)C1 (stereo not drawn)
7.00 to 8.00

Lookup: pIC50 / 5-HT2A (Homo sapiens) / CN1CC(n2ccc3cc(C#N)ccc32)C1
< 5.00

Lookup: pIC50 / 5-HT2A (Homo sapiens) / Cc1cn(C2CCNC2)c2ccc(F)cc12 (stereo not drawn)
6.00 to 7.00

Lookup: pIC50 / 5-HT2A (Homo sapiens) / Cc1cn(C2CN(C)C2)c2ccc(F)cc12
5.00 to 6.00
